All values here come from PubChem BioAssay.

experiment: JC-1 mitochondrial signal, unstimulated myeloma cells – cell-based, JC-1 fluorescence, RPMI8226, 24 h, 100 nL compound, profiling panel (AID 1169); details: JC-1 mitochondrial potential fluorescence, higher = more signal; further: test concentration not given here
Provide the reported z-score of each item.

Entry O=C1NC(=O)C2C1C=CC(C(O)c1ccco1)N2Nc1ccc(Cl)cc1Cl (centres undefined) : reported z-score = ? -0.977

Field request: z-score | item: O=C1C2C=CC(C(O)c3ccco3)N(Nc3ccccc3F)C2C(=O)N1c1ccccc1 (centres undefined) -0.201

I'd like to know its z-score. The compound in question is C#CCN([C@@H](Cc1ccccc1)C(=O)OC)[C@@H](/C=C/C1CC1)[C@H](O)Cc1ccccc1 -1.03

GET /values?readout=z-score&item= CCCCCN1CC=CC23O[C@@H]4/C=C\CCCOC(=O)C4[C@H]2C(=O)N(C(C)CO)[C@@H]3C1=O (some centres undefined) 1.08

Quick one: z-score for [N-]=[N+]=Nc1ccccc1[C@@H]1OC(c2ccc(OCCCO)cc2)=N[C@]1(Cc1ccccc1)C(=O)O ? -0.739

Recorded z-score for Cc1ccc(F)cc1S(=O)(=O)N[C@@H]1CCN(Cc2ccc(Br)cc2)C1 , please? -0.645

What does the data say about its z-score? Entry: COC(=O)C/C=C/C[C@]1(O)C(=O)N(C)c2ccccc21 -0.838

Any idea what z-score was measured for NC(=O)[C@@]1(Cc2ccccc2)COC(c2ccc(OCCCO)cc2)=N1 ? -0.759

Need z-score, item CCCCN1CC=CC23O[C@@H]4/C=C\CCCOC(=O)C4[C@H]2C(=O)N(CCO)[C@@H]3C1=O (some centres undefined) 0.378
